The origin of these recorded values is ChEMBL document CHEMBL1143309.

biological target: Histone acetyltransferase KAT5 (Homo sapiens, UniProt Q92993); experiment: Inhibition of TIP60 in human HeLa cell extracts by ELISA
Sequence (Q92993 whole entry): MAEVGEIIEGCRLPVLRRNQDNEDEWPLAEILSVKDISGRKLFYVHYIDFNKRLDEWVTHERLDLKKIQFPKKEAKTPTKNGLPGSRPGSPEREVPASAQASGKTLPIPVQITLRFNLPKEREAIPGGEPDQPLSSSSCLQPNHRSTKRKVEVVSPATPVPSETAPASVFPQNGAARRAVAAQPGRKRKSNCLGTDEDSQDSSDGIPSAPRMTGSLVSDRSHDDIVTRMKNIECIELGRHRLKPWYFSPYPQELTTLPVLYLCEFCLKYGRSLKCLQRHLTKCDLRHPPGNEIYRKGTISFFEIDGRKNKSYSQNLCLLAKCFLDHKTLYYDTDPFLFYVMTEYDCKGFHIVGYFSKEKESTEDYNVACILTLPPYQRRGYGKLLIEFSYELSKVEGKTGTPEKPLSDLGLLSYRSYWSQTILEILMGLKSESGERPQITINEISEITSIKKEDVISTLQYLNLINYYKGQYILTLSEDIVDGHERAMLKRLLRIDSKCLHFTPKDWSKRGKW
Measured Metric: IC50 (µM)
Give bare numbers, in µM.

Query string: For the molecule C=CC/C=C\C/C=C\CCCCCCCc1cccc(O)c1C(=O)O , what IC50 is on record?
Result string: 9

====

assay: Inhibition of His6x-tagged yeast recombinant Esa1 (105-445) expressed in Escherichia coli BL21 (DE3) by liquid scintillation; parameters: species or system Saccharomyces cerevisiae
Measured Metric: IC50 (µM)
Numbers only, in µM.

Sample answers from the record:
C=CC/C=C\C/C=C\CCCCCCCc1cccc(O)c1C(=O)O [ANACARDIC ACID]: 297
CC(=O)N[C@@H](CCCCNC(=O)CSCCNC(=O)CCNC(=O)[C@H](O)C(C)(C)COP(=O)(O)OP(=O)(O)OC[C@H]1O[C@@H](n2cnc3c(N)ncnc32)[C@H](O)[C@@H]1OP(=O)(O)O)C(N)=O: 7

Proceed to the following item.
Query string: For the molecule CC(C)(COP(=O)(O)OP(=O)(O)OC[C@H]1O[C@@H](n2cnc3c(N)ncnc32)[C@H](O)[C@@H]1OP(=O)(O)O)[C@@H](O)C(=O)NCCC(=O)NCCS [COENZYME_A] , what IC50 is on record?
Result string: 68.6
